- System: OVCAR-8
- assay: NCI tumour cell line growth inhibition, 48 h
Calls of active or inactive are those of the source. Rule as the data show it: active = GI50 up to about 1.1 µM and inactive = higher.
Possible outcomes: 1.0 for active, 0.0 for inactive

INSERT INTO assay_data (compound, assigned_class) VALUES
  ('CC(=O)O[C@H]1C(=O)[C@@]2(C)[C@H]([C@H](OC(=O)c3ccccc3)[C@]3(O)C[C@H](OC(=O)[C@H](O)[C@@H](NC(=O)OC(C)(C)C)c4ccco4)C(C)=C1C3(C)C)[C@]1(OC(C)=O)CO[C@@H]1C[C@@H]2O', 1.0),
  ('O=C(CC(C(=O)c1cccs1)c1ccsc1)c1ccc(Cl)cc1 (centres undefined)', 0.0),
  ('CC(=O)C12C[C@](C#N)(N3CCCCCC3)C1C=Cc1ccccc12 (some centres undefined)', 0.0),
  ('CCCC[C@@H](C)/C=C1\CN2CCC[C@H]2[C@@](C)(O)[C@@H]1O', 0.0);

----------
Listing: GI50 of selected molecules
- System: OVCAR-8
- assay: NCI tumour cell line growth inhibition, 48 h
Calls of active or inactive are those of the source. Cut-off read from the data, not from the text of the source: active = GI50 up to about 1.1 µM and inactive = higher.
reported_property: GI50

INSERT INTO assay_data (molecule, study_system, test_value) VALUES
  ('CCCC[C@@H]1CCN2C[C@@H](O)[C@@H](O)[C@@H]2[C@H]1O', 'OVCAR-8', '> 100 µM (inactive)'),
  ('O=C(n1[nH]c(=O)n(-c2ccc([N+](=O)[O-])cc2)c1=O)C(Cl)(Cl)Cl', 'OVCAR-8', '> 75 µM (inactive)'),
  ('O=C(/C=C/c1ccc(Cl)c(Cl)c1)c1ccccc1Cl', 'OVCAR-8', '6 µM (inactive)'),
  ('O=C1CCC(c2ccccc2)C(O)(C(=O)O)C1 (centres undefined)', 'OVCAR-8', '> 100 µM (inactive)'),
  ('CSc1snc2sc3c(Cl)nnnc3c12', 'OVCAR-8', '7.46 µM (inactive)'),
  ('CCOC(=O)C(NC(=O)c1cccc(Cl)c1)(N1CCN(c2cc3c(cc2F)c(=O)c(C(=O)O)cn3CC)CC1)C(F)(F)F (centres undefined)', 'OVCAR-8', '16.6 µM (inactive)'),
  ('C=CCOC(=O)N1c2ccc(O)cc2[C@@]23O[C@@]24[C@@H]1C#C/C=C\C#C[C@]3(O)C(OC)(OC)C[C@@H]4C', 'OVCAR-8', '32.5 µM (inactive)'),
  ('COP(C)(=O)C1=CCN(C(=O)OCC[Si](C)(C)C)CC1 (centres undefined)', 'OVCAR-8', '> 100 µM (inactive)'),
  ('CC(=O)[C@]1(C)[C@H](C)O[C@](C)(CO)[C@H]1O[Si](C)(C)c1ccccc1', 'OVCAR-8', '48 µM (inactive)'),
  ('COc1ccc(/C=C/C(=O)CCN2CCN(CCC(=O)/C=C/c3ccc(OC)cc3)CC2)cc1', 'OVCAR-8', '20.8 µM (inactive)'),
  ('O=C(COC(=O)c1cccc2c(=O)c3ccccc3[nH]c12)Nc1ccc(S(=O)(=O)Nc2ncccn2)cc1', 'OVCAR-8', '35.8 µM (inactive)'),
  ('CC1(C)OC2CC(=O)OCC23C1CC(=O)C1(C)C3CCC2(C)C(c3ccoc3)OC(=O)C3OC321 (centres undefined)', 'OVCAR-8', '11.7 µM (inactive)'),
  ('CCC(=O)NC(Nc1cccc(F)c1C)(C(F)(F)F)C(F)(F)F', 'OVCAR-8', '> 100 µM (inactive)'),
  ('C[C@]12CC[C@H]3[C@@H](CCC4=CC(=O)CC[C@@]43C)[C@@H]1CC[C@@H]2C(=O)Nc1ccc([N+](=O)[O-])c(C(F)(F)F)c1', 'OVCAR-8', '26.4 µM (inactive)'),
  ('O=c1oc2ccccc2c2c1Sc1ccccc1N2', 'OVCAR-8', '> 100 µM (inactive)'),
  ('Cc1nn(C2OC(CO)C(O)C(F)C2O)c(=O)[nH]c1=O (centres undefined)', 'OVCAR-8', '> 100 µM (inactive)'),
  ('CN(C)c1ccc2c(=O)c3ccccc3oc2n1', 'OVCAR-8', '> 100 µM (inactive)'),
  ('Cc1csc2nc3[nH]ncc3c(=O)n12', 'OVCAR-8', '> 100 µM (inactive)'),
  ('CC(C)(C)c1cc(C2COC(=O)COCC(=O)OCCOCCOCCO2)cc(C(C)(C)C)c1O (centres undefined)', 'OVCAR-8', '62.4 µM (inactive)'),
  ('C=C(C(=O)OC)[C@@H]1C[C@@H](OC(C)=O)C2=C[C@H](C[C@@]3(C)O[C@@H]3C3=CC(C)=C(O3)[C@H]1OC(C)=O)OC2=O', 'OVCAR-8', '17.3 µM (inactive)'),
  ('CC1(C)OCC(COC(=O)NCn2cc(-c3ccccc3)nn2)O1 (centres undefined)', 'OVCAR-8', '> 100 µM (inactive)'),
  ('O=C(O)Cc1cc(O)c(CC(=O)O)cc1O', 'OVCAR-8', '> 100 µM (inactive)'),
  ('Cc1c2c(n3c(nc4ccccc43)c1C#N)N(c1ccc(Cl)cc1)CC2', 'OVCAR-8', '> 100 µM (inactive)'),
  ('O=C(Nc1cccc2ccccc12)c1cc2ccccc2oc1=O', 'OVCAR-8', '39.4 µM (inactive)'),
  ('COC(=O)C(C(=O)C(=O)Nc1c(C)cccc1C)c1cnc2ccccc2n1 (centres undefined)', 'OVCAR-8', '> 100 µM (inactive)'),
  ('CON(C)C(=O)[C@H]1C[C@@]1(C)CO', 'OVCAR-8', '> 100 µM (inactive)'),
  ('C#C[C@]1(O)CC[C@H]2[C@@H]3CCC4=C/C(=N/OC(=O)c5cccc6c(=O)c7ccccc7[nH]c56)CCC4[C@H]3CC[C@@]21CC (some centres undefined)', 'OVCAR-8', '19.8 µM (inactive)'),
  ('COC1(OC)N=C(N)C2(C#N)/C(=N/N(C)C)CC(C)C12C#N (centres undefined)', 'OVCAR-8', '> 100 µM (inactive)'),
  ('C[N+](C)(C)CC1Cc2ccccc2C1=O (centres undefined)', 'OVCAR-8', '1.89 µM (inactive)'),
  ('CNC(=S)N(C1CCCCC1)C1CCCCC1', 'OVCAR-8', '> 100 µM (inactive)'),
  ('C#CCN(Cc1ccc2nc(-c3ccccc3)c(N)nc2c1)c1cc(OC)c(OC)c(OC)c1', 'OVCAR-8', '30.4 µM (inactive)'),
  ('NC(=O)c1nnc2c(F)cccc2c1N', 'OVCAR-8', '> 100 µM (inactive)'),
  ('Clc1ccc(/C=C/c2nc3ccccc3s2)cc1Cl', 'OVCAR-8', '47.8 µM (inactive)'),
  ('CC1C(C#N)(C#N)C(C#N)=C(N)C1(Cl)[N+](=O)[O-] (centres undefined)', 'OVCAR-8', '14.9 µM (inactive)');
